System: HTT mRNA
Assay: RT-qPCR splicing assay, HTT mRNA canonical (CJ) and alternative (AJ) junction
Type: cell-based, human
Details: Homo sapiens, RT-qPCR, HTT canonical junction mRNA decrease; read-out: HTT CJ (decrease in canonical junction mRNA, IC50)
pIC50: −log10 of the molar value. Structures can show the parent of a compound that is named as a salt.
REPORTED METRIC: pIC50

| COMPOUND | REPORTED METRIC | RESULT |
| --- | --- | --- |
| C[C@@H]1CN(c2cc(F)c3nc(-c4cc5cn(C)nc5cc4O)ccc3c2)C[C@H](C)N1 [Compound 768, hydrochloride] | pIC50 | 5.00 to 6.00 |
| Cc1cn2nc(-c3ncc4cc(N5C[C@H](C)N[C@@H](C)C5)ccc4n3)cc(C)c2n1 (single isomer, unassigned) | pIC50 | < 5.00 |
| Cc1c(O)c(-c2nc(C(N)=O)c3cc(N4C[C@@H](C)N[C@@H](C)C4)ccc3n2)cc2cn(C)nc12 | pIC50 | 5.00 to 6.00 |
| Cn1cc2cc(-c3ncc4cc(N5CCC(N6CCC6)CC5)ccc4n3)c(O)cc2n1 | pIC50 | 5.00 to 6.00 |
| C[C@@H]1CN(c2ccc3nc(-c4cc(F)c5nn(C)c(F)c5c4)ncc3c2)C[C@H](C)N1 | pIC50 | 5.00 to 6.00 |
| Cc1nc2c(F)cc(-c3ncc4cc(N5C[C@@H](C)N[C@@H](C)C5)ccc4n3)cn2c1F | pIC50 | 6.00 to 7.00 |
| Cc1cn2nc(-c3ccc4cc(N5C[C@H](C)N[C@@H](C)C5)cc(F)c4n3)cc(C)c2n1 (single isomer, unassigned) | pIC50 | 6.00 to 7.00 |
| Cc1cn2cc(-c3ncc4cc(N5C[C@@H](C)N[C@@H](C)C5)ccc4n3)ccc2n1 | pIC50 | < 5.00 |
| Cc1cn2cc(-c3ncc4cc(N5C[C@@H](C)N(C)[C@@H](C)C5)ccc4n3)cc(F)c2n1 | pIC50 | 5.00 to 6.00 |
| Cc1cn2cc(-c3ncc4cc(N5C[C@@H](C)N[C@@H](C)C5)ccc4n3)cc(C#N)c2n1 | pIC50 | 6.00 to 7.00 |
| C[C@@H]1CN(c2cc(F)c3nc(-c4cc(F)c5nn(C)cc5c4)ccc3c2)C[C@H](C)N1 | pIC50 | 6.00 to 7.00 |
| Cc1c(O)c(-c2ncc3cc(N4C[C@@H](C)NC5(CC5)C4)ccc3n2)cc2cn(C)nc12 (single isomer, unassigned) | pIC50 | 5.00 to 6.00 |
| Cc1c(O)c(-c2nc(C(N)=O)c3cc(N4C[C@H](C)N[C@@H](C)C4)ccc3n2)cc2cn(C)nc12 | pIC50 | 6.00 to 7.00 |
| Cc1nc2c(F)cc(-c3ncc4cc(N5C[C@H](C)N[C@@H](C)C5)ccc4n3)cn2c1F (single isomer, unassigned) | pIC50 | 5.00 to 6.00 |

----------
Tested on: K562 cells
Experiment: Cell Titer Glo 2.0 cell viability (toxicity) assay, K562
Settings: 500 cells/well, 72 hours
REPORTED METRIC: Effect of Exemplary Compounds on Cell Viability, K562

| COMPOUND | TARGET UNDER TEST | RESULT |
| --- | --- | --- |
| Cn1cc2cc(-c3ccc4nc(N5CC[C@H](NC(C)(C)C)C5)ccc4n3)c(O)cc2n1 | K562 cells | A (A represents <100 nM) |
| Cc1c(O)c(-c2ccc3cc(N4CCNCC4)cc(F)c3n2)cc2cn(C)nc12 | K562 cells | A (A represents <100 nM) |
| CNC(=O)c1nc(-c2cc3cn(C)nc3c(F)c2O)nc2ccc(N3C[C@@H](C)N[C@@H](C)C3)cc12 | K562 cells | A (A represents <100 nM) |
